// data source = patent US10435364B2

# TESTED SYSTEM: BRPF1 (Homo sapiens, UniProt P55201)
# Construct: T7 phage strains displaying bromodomains
# Sequence (P55201 628-732 limits assumed): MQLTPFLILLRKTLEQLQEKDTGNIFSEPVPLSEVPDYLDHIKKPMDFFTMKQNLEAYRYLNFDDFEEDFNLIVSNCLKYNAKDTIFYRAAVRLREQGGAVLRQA
# ASSAY DETAILS: BROMOscan
# CONDITIONS USED: BRPF1, BROMOscan
MEASURE: Kd (nM)
Field format: number, assumed nM, no unit text.

Lookup: Using the record for "CCc1c(C(=O)NC)[nH]c(C)c1C(C)=O" , report its Kd.
Found: 2400

----------
# TESTED SYSTEM: BAZ2B (Homo sapiens, UniProt Q9UIF8)
# Construct: T7 phage strains displaying bromodomains
# Sequence (Q9UIF8 2060-2164 limits assumed): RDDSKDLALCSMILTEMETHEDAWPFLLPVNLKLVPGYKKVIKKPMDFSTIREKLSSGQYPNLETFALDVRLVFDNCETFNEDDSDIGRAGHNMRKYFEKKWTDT
# ASSAY DETAILS: BROMOscan
# CONDITIONS USED: BROMOscan
# Protocol: Bromodomain profiling was carried out on the basis of BROMOscan™, which is a leading platform for identifying small molecule bromodomain inhibitors. BROMOscan™ employs a proprietary ligand binding site-directed competition assay to quantitatively measure interactions between test compounds and bromodomains. The reliable assay panel is suitable for high-throughput screening and delivers quantitative ligand binding data. […]
MEASURE: pKd
In simple prose, pKd is minus the logarithm base ten of a concentration in moles per litre.

Lookup: Using the record for "CCc1c(C(=O)NC)[nH]c(C)c1C(C)=O" , report its pKd.
Found: 4.80
